testedOn: FXIIa (Homo sapiens, UniProt P00748)
Sequence (P00748 373-615 limits assumed): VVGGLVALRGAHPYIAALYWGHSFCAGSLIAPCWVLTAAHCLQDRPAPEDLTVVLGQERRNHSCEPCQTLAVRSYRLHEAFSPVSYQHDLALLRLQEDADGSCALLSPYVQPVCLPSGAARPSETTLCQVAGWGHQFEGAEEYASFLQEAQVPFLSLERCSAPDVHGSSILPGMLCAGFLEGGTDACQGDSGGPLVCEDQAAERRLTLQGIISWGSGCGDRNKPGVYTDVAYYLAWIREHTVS
Sequence (P00748 20-372 partner limits assumed): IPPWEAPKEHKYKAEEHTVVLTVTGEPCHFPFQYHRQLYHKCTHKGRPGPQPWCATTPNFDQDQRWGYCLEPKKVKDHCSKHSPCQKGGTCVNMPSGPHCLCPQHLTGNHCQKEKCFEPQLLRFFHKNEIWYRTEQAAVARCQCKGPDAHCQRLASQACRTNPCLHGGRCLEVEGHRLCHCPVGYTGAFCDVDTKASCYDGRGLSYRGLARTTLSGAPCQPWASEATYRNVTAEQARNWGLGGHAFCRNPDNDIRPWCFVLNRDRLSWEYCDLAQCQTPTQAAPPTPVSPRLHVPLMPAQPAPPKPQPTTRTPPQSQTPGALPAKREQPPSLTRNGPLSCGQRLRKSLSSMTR
Would you mind telling me the reported Ki of each entry?

Cn1nnc2cc(CNC(=O)[C@@H]3C[C@@](O)(c4ccccc4)CN3C(=O)[C@H](N)CCc3ccccc3)ccc21; > 2 µM

The following molecules each have a reported value; give each one's Ki.
1. COc1ccc(C[C@@H]2C[C@@H](C(=O)NCc3ccc4c(c3)nnn4C)N(C(=O)[C@H](N)CCC(=O)N3C4CCC3COC4)C2)cc1
2. Cn1nnc2cc(CNC(=O)[C@@H]3C[C@H](CC4CCOCC4)CN3C(=O)[C@H](N)CCC(=O)N3CCCC3)ccc21
3. Cn1nnc2cc(CNC(=O)[C@@H]3C[C@H](Cc4ccccn4)CN3C(=O)[C@H](N)CCC(=O)N3CCCC3)ccc21

OUTPUT:
1: 0.2 to 2 µM; 2: > 2 µM; 3: 0.2 to 2 µM

For each of the items listed, what is its Ki?
1. Cn1nnc2cc(CNC(=O)[C@@H]3C[C@@H](Cc4ccc(F)cc4F)CN3C(=O)[C@H](N)CCC(=O)N3CCCC3)ccc21
2. N#C[C@@H]1C[C@@H](C(=O)NCc2ccc(CN)cc2)N(C(=O)[C@H](N)CCc2ccccc2)C1

OUTPUT:
["< 0.2 µM", "> 2 µM"]
